- System: 97ZA003 (C-R5)
- methodNotes: p24 Gag production inhibition, PHA-PBMs, subtype C isolate 97ZA003
- Type: cell-based, HIV-1
- assayContext: Human immunodeficiency virus 1; PHA-PBMs, p24 Gag production; read-out: IC50 against 97ZA003 (C-R5)
- Protocol: Drug susceptibility assay. The susceptibility of HIV-1LAI, HIV-2EHO, HIV-2ROD, to various drugs and the cytotoxicity of those drugs was determined by using the MTT assay. […] On day 7 of culture, the supernatant was harvested and the amount of p24 Gag protein was determined by using a fully automated chemiluminescent enzyme immunoassay system (Lumipulse F; Fujirebio Inc., Tokyo, Japan) (22). […]
reportedProperty: log10 of IC50 (log10 of the value in nM)

* CC(C)(C)NC(=O)[C@@H]1CN(Cc2cccnc2)CCN1C[C@@H](O)C[C@@H](Cc1ccccc1)C(=O)N[C@H]1c2ccccc2C[C@H]1O | 1.57
* Cc1c(O)cccc1C(=O)N[C@@H](CSc1ccccc1)[C@H](O)CN1C[C@H]2CCCC[C@H]2C[C@H]1C(=O)NC(C)(C)C | 1.57
* COC(=O)N[C@H](C(=O)N[C@@H](Cc1ccccc1)[C@@H](O)CN(Cc1ccc(-c2ccccn2)cc1)NC(=O)[C@@H](NC(=O)OC)C(C)(C)C)C(C)(C)C | 0.53
* CC(C)CN(C[C@@H](O)[C@H](Cc1ccccc1)NC(=O)O[C@H]1CCOC1)S(=O)(=O)c1ccc(N)cc1 | 1.52
* Cc1cccc(C)c1OCC(=O)N[C@@H](Cc1ccccc1)[C@@H](O)C[C@H](Cc1ccccc1)NC(=O)[C@H](C(C)C)N1CCCNC1=O | 0.86
* CC(C)CN(CC(O)C(Cc1ccccc1)NC(=O)OC1COC2OCCC12)S(=O)(=O)c1ccc2c(c1)OCO2 (stereo not shown) | -0.30
* CC(C)c1nc(CN(C)C(=O)N[C@H](C(=O)N[C@@H](Cc2ccccc2)C[C@H](O)[C@H](Cc2ccccc2)NC(=O)OCc2cncs2)C(C)C)cs1 | 1.59
